// data source = ChEMBL document CHEMBL3994582

Measured inhibition by item
- EXPERIMENTAL_SYSTEM: Adenosine receptor A2a (Homo sapiens)
- Sequence (P29274 whole entry): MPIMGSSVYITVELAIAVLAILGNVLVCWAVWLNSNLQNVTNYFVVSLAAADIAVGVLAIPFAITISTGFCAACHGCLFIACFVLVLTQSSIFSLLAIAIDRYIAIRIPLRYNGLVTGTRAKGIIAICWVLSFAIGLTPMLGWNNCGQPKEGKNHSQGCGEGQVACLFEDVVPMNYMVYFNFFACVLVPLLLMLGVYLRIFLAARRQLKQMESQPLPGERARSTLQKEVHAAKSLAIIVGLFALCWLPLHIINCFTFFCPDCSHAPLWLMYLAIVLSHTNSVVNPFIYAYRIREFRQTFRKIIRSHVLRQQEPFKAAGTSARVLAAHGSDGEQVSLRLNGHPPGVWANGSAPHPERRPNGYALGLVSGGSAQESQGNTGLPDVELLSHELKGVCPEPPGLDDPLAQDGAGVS
- METHOD: Displacement of [3H]-ZM-241385 from human adenosine receptor A2a expressed in HEK293 cell membranes at 0.1 uM after 90 mins by liquid scintillation counting method relative to control
OBSERVATION_TYPE: inhibition (%)

INSERT INTO assay_data (compound, result_number) VALUES
  ('CCCn1c(=O)c2[nH]c(-c3cnn(CC(=O)N4CCN(c5ccc(C)cc5)CC4)c3)nc2n(CCC)c1=O', 58),
  ('CCCn1c(=O)c2[nH]c(-c3ccc(OCC4CC(=O)N(c5cccc(C(F)(F)F)c5)C4)nc3)nc2n(CCC)c1=O (stereo unspecified)', 71),
  ('CCCn1c(=O)c2[nH]c(-c3cnn(CC4CC(=O)N(c5ccc(C(F)(F)F)cc5)C4)c3)nc2n(CCC)c1=O (stereo unspecified)', 52),
  ('CCCn1c(=O)c2[nH]c(-c3cnn(CC4CC(=O)N(c5ccc(F)cc5F)C4)c3)nc2n(CCC)c1=O (stereo unspecified)', 45),
  ('CCCn1c(=O)c2[nH]c(-c3cnn(CC4CCN(c5cccc(OC)c5)C4)c3)nc2n(CCC)c1=O (stereo unspecified)', 69),
  ('CCCn1c(=O)c2[nH]c(-c3cnn(CC4CCN(c5cccc(C(F)(F)F)c5)C4)c3)nc2n(CCC)c1=O (stereo unspecified)', 57);
